Origin of values: patent US8129355B2

# TARGET_DESC: GAL4 DBD-CfEcR(DEF)/VP16AD-MmRXRE (Choristoneura fumiferana)
# Sequence (O77240 1-513): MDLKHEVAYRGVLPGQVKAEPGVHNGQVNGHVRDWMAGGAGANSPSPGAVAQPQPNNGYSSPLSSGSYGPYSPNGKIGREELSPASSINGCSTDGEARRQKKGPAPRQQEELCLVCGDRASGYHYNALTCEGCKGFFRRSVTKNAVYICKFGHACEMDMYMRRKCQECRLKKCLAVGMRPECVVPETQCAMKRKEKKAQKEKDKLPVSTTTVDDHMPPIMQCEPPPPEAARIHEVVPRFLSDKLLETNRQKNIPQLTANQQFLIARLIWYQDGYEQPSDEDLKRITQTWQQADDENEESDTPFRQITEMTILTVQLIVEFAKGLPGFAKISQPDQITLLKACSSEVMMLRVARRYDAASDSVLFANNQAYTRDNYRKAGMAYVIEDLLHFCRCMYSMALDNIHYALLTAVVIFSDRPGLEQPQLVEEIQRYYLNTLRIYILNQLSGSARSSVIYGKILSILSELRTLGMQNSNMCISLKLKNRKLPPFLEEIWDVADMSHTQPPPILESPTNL
# EXPERIMENT_SUMMARY: cell-based
pEC50: −log10 of the molar value.
I'd appreciate it if you could supply pEC50 values for the items below.

>  <MOLECULE>
CCc1c(OC)cccc1C(=O)NC1(C(=O)c2ccccc2)CCCC1

>  <pEC50>
< 4.48

$$$$
>  <MOLECULE>
COc1cccc(C(=O)NC(C)(C(=O)c2ccccc2C)C(C)C)c1C (centres unmarked)

>  <pEC50>
< 4.48

$$$$

Report pEC50 for every entry below.
1. COc1cccc(C(=O)NC2(C(=O)c3cccc(C)c3)CCCC2)c1C
2. COc1cccc(C(=O)NC2(C(=O)c3ccc(F)cc3)CCCC2)c1C
3. COc1cccc(C(=O)NC(C)(CC(C)C)C(=O)c2cccc(C)c2)c1C (centres unmarked)
4. CCC(CC)(NC(=O)c1cccc(OC)c1C)C(=O)c1cc(C)cc(C)c1
5. COc1ccccc1C(=O)C1(NC(=O)c2cccc(OC)c2C)CCCC1

< 4.48
< 4.48
< 4.48
~4.82
~4.82

Report pEC50 for every entry below.
1. COc1cccc(C(=O)C(C)(CC(C)C)NC(=O)c2cccc(OC)c2C)c1 (centres unmarked)
2. COc1cccc(C(=O)NC(C)(C(=O)c2ccccc2)C(C)C)c1C (centres unmarked)
3. COc1cccc(C(=O)NC2(C(=O)c3cc(C)cc(C)c3)CC2)c1C
4. COc1cccc(C(=O)NC2(C(=O)c3cc(C)cc(C)c3)CCS(=O)(=O)CC2)c1C
5. COc1cccc(C(=O)C(C)(NC(=O)c2cccc(OC)c2C)C(C)C)c1 (centres unmarked)

1. < 4.48
2. < 4.48
3. < 4.48
4. < 4.48
5. < 4.48

Report pEC50 for every entry below.
1. CCC(CC)(NC(=O)c1cccc(OC)c1C)C(=O)c1ccc(F)c(C)c1
2. CCC(CC)(NC(=O)c1cccc(OC)c1C)C(=O)c1cccc(C)c1

< 4.48
≤ 4.48

----------
# TARGET_DESC: GAL4 DBD-CfEcR(DEF)/VP16AD-MmRXRE (Choristoneura fumiferana, UniProt O77240)
# Sequence (O77240 1-513): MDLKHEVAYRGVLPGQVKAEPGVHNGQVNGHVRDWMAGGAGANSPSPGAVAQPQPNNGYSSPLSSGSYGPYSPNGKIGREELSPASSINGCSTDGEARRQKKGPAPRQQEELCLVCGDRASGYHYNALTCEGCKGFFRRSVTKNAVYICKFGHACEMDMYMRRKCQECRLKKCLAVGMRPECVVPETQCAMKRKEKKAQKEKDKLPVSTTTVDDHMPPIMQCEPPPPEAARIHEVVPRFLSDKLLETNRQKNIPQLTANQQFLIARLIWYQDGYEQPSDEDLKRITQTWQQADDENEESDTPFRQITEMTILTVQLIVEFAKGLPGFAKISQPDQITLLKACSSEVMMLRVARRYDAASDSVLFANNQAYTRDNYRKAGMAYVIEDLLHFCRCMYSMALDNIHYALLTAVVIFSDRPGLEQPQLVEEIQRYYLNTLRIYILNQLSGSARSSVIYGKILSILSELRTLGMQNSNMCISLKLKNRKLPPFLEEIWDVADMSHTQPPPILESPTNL
# EXPERIMENT_SUMMARY: cell-based
pEC50: −log10 of the molar value.
I'd appreciate it if you could supply pEC50 values for the items below.

These recorded examples may help you get a feel for the data.
>  <COMPOUND>
COc1cccc(C(=O)NC2(C(=O)c3cccc(C)c3)CCCCC2)c1C

>  <TARGET_DESC>
GAL4 DBD-CfEcR(DEF)/VP16AD-MmRXRE (Choristoneura fumiferana, UniProt O77240)

>  <EXPERIMENTAL_RESULT>
5.17

$$$$
>  <COMPOUND>
COc1cccc(C(=O)C2(NC(=O)c3cccc(OC)c3C)CCCC2)c1

>  <TARGET_DESC>
GAL4 DBD-CfEcR(DEF)/VP16AD-MmRXRE (Choristoneura fumiferana, UniProt O77240)

>  <EXPERIMENTAL_RESULT>
< 4.48

$$$$
>  <COMPOUND>
COc1cccc(C(=O)NC(C)(C(=O)c2ccc(C)cc2)C(C)C)c1C (stereo not shown)

>  <TARGET_DESC>
GAL4 DBD-CfEcR(DEF)/VP16AD-MmRXRE (Choristoneura fumiferana, UniProt O77240)

>  <EXPERIMENTAL_RESULT>
< 4.48

$$$$

Entry COc1ccc(C(=O)C2(NC(=O)c3cccc(OC)c3C)CCCCC2)cc1 : reported pEC50 = ?
< 4.48
